target: UniProtKB G1TAZ9
Sequence (G1TAZ9 1-530): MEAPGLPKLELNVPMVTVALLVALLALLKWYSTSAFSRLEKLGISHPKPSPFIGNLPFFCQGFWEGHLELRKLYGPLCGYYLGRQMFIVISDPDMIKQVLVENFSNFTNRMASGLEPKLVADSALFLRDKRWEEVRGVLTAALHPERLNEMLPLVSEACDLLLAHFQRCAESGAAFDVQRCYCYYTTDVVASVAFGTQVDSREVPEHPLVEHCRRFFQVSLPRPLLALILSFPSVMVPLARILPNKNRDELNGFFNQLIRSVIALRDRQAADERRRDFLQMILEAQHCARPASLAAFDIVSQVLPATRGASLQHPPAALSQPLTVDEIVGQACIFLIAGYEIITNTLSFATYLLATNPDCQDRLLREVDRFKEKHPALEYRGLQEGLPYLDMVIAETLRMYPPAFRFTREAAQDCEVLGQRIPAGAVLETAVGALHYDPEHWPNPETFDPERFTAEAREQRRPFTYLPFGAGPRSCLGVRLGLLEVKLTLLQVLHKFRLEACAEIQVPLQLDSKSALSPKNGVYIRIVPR
Structures can show the parent of a compound that is named as a salt.
Please go through the items and note down their IC50.
Answers are plain numbers, in nM.

What measured IC50 goes with O=C(O)C(CCCCCCn1ccnc1)c1ccccc1 (centres unmarked) [hydrochloride] ?
38

For the next question, use this compound.
# input compound: O=C(O)C1(CCCCCCn2ccnc2)CCCCC1 [hydrochloride] ; wanted: its IC50
46
